Taken from ChEMBL document CHEMBL4513216.

Tested on: Plasmodium berghei
measurement_protocol: Screen against P. berghei liver stage (PbLuc), transformed with Luciferase, at 10uM
Type: functional, HepG2
measurement_setup: tested at 10 uM
Among all 69,000 compounds or so, about 8,600 (12%) showed an effect of 50% or more. Many of the other results were omitted from the sample, so strong results are more common in it than they were.
Listing of recorded INHIBITION by entry.
Write the answer as a number in %, unit excluded.

// worked examples, INHIBITION included
{"columns": ["molecule", "study_target", "unit_descriptor", "INHIBITION"],
 "data": [
  ["CO[C@H]1CCN(Cc2ccoc2)C[C@@H]1Cc1ccccc1", "Plasmodium berghei", "%", 41.4],
  ["Cn1cc(CN2CCC3(CCCN(C(=O)c4cscn4)C3)C2)cn1 (stereo not drawn)", "Plasmodium berghei", "%", -68.5],
  ["COc1ccc(C[C@H]2CN(Cc3ccoc3)CC[C@@H]2OC)cc1", "Plasmodium berghei", "%", 58.3],
  ["CO[C@@H]1CCN(Cc2ccoc2)C[C@@H]1Cc1ccccc1", "Plasmodium berghei", "%", 51.4],
  ["COCCCNC(=O)c1c(-n2cnnn2)sc2c1CCC2", "Plasmodium berghei", "%", 30.8]
]}

What value of measured INHIBITION is listed for COC(=O)CC(c1ccc(OC)c(O)c1)c1oc(C)cc(=O)c1O (stereo not drawn) ?
3.31

Let us now turn to O=C1NC2(CCN(CC(=O)N3CCOCC3)CC2)Nc2ccccc21
3.5

Let us now turn to CC1=CC(C)(C)N(CN2C(=O)c3ccccc3C2=O)c2ccccc21
44.6

Let us now turn to CCc1nnc2n1CC(CNCc1nnc(C(C)(C)C)o1)CC2 (stereo not drawn)
14.9

Let us now turn to CC1=CC(C)(C)N(CN2C(=O)c3ccccc3C2=O)c2ccc(C)cc21
67.4

Let us now turn to COc1ccc(OC)c(C(C)Nc2ncnc3c2NC(=O)CN3)c1 (stereo not drawn)
24.2

Let us now turn to CC(C)OCCCNC(=O)c1c(-n2cnnn2)sc2c1CCCC2
20.1

Let us now turn to Cc1cc(C)n(C2=NC(NCCC(C)C)c3c(sc4c3CCCC4)N2)n1 (stereo not drawn)
90.5

Let us now turn to Cc1oc(C(=O)O)cc1S(=O)(=O)Nc1cc(Br)ccc1Cl
38.8

Let us now turn to CC(C)CC(O)C1CCN(C(=O)c2coc(CN3CCOCC3)c2)CC1 (stereo not drawn)
16.7

----------
Listing of recorded INHIBITION by entry.
Test system: Plasmodium berghei
measurement_protocol: Screen against P. berghei liver stage (PbLuc), transformed with Luciferase, at 10uM
Format: functional, HepG2
measurement_setup: tested at 10 uM
Screen size: about 69,000 compounds; about 8,600 (12%) showed an effect of 50% or more. Only a selection was taken, and strong results are over-represented in it overall.
Write the answer as a number in %, unit excluded.

// worked examples, INHIBITION included
{"columns": ["compound", "study_target", "experimental_endpoint", "unit_descriptor", "reported_value"],
 "data": [
  ["CN1CC2(CCN(C(=O)Cc3ccccn3)CC2)OCC1=O", "Plasmodium berghei", "INHIBITION", "%", -28.2],
  ["Cc1ccc(C(=O)N2C[C@H]3CCC[C@@]3(COc3ccccn3)C2)nc1", "Plasmodium berghei", "INHIBITION", "%", -10.2],
  ["c1ccc2oc(N3CCCCC3Cn3cncn3)nc2c1 (centres undefined)", "Plasmodium berghei", "INHIBITION", "%", 55.5],
  ["Cc1noc(C)c1-c1n[nH]c2c1CN(S(=O)(=O)c1cccs1)CC2", "Plasmodium berghei", "INHIBITION", "%", 61.8],
  ["CCN1Cc2cc(F)ccc2N(CC(O)C(F)(F)F)CCC1=O (centres undefined)", "Plasmodium berghei", "INHIBITION", "%", 47.2]
]}

What value of measured INHIBITION is listed for NS(=O)(=O)CCN1CCN(c2cc(F)ccc2F)CC1 ?
-6.51

Let us now turn to COc1ccc(-c2cc(C(=O)NCCn3ccnc3)n(C)n2)cc1
-5.8

Let us now turn to CNC(=O)C1CCN(C(=O)c2coc(COc3ccc(OC)cc3)n2)C1 (centres undefined)
-66.3

Let us now turn to Cc1noc(C)c1-c1n[nH]c2c1CN(S(=O)(=O)c1cccnc1)CC2
23.3

Let us now turn to Cc1noc(C(C)N2CCN(CCC(=O)N3CCCCC3)CC2)n1 (centres undefined)
17.4

Let us now turn to CSCCc1n[nH]c2c1CN(S(=O)(=O)c1cn(C)c(C)n1)CC2
-10.8

Let us now turn to NC(=O)CN1CCC(C(=O)NCCc2nc(-c3ccccc3)cs2)CC1
-53.6

Let us now turn to OCCC[C@@H]1CN(c2ncc(Cl)cc2Cl)CC[C@@H]1N1CCOCC1
1.93

----------
Listing of recorded INHIBITION by entry.
System: Plasmodium berghei
measurement_protocol: Screen against P. berghei liver stage (PbLuc), transformed with Luciferase, at 10uM
Assay type: functional, HepG2
measurement_setup: tested at 10 uM
The whole screen tested about 69,000 compounds, of which about 8,600 (12%) showed an effect of 50% or more. This is one part of a sample in which strong results are shown more often than they occur.
Write the answer as a number in %, unit excluded.

{"columns": ["compound", "study_target", "reported_value"],
 "data": [
  ["Cc1csc(C(=O)N2CCC(S(C)(=O)=O)C2)c1 (stereo not drawn)", "Plasmodium berghei", 12.3],
  ["CN(C)c1ccc(CN2CCN(c3ccc(C#N)cc3)C(=O)C2)cn1", "Plasmodium berghei", 18.9],
  ["Cc1ccc(CN2CCC(O)(Cn3nc(-c4cccs4)oc3=O)CC2)o1", "Plasmodium berghei", 14.6]
]}

What value of measured INHIBITION is listed for CCC(CC)NC(=O)c1ccc2nnc(C3CCN(C(C)=O)C3)n2c1 (stereo not drawn) ?
50.7

Let us now turn to CCc1cc(C(F)(F)F)n2nc(C3CCCN3C3CCSCC3)cc2n1 (stereo not drawn)
18.95

Let us now turn to CC(=O)N1CCC(c2nnc3ccc(C(=O)NCC(C)C)cn23)C1 (stereo not drawn)
51.2

Let us now turn to CC(C)NC(=O)N1CCC(c2nnc3ccc(C(=O)N(C)C)cn23)C1 (stereo not drawn)
-7.24

Let us now turn to FC(F)Oc1ccc(CN2CCOC3(CCOCC3)C2)cc1Cl
38

Let us now turn to N#Cc1ccc(C(=O)N2CCCSCC2CN2CCCC2)cc1 (stereo not drawn)
40.8

----------
Test system: Plasmodium berghei
measurement_protocol: Screen against P. berghei liver stage (PbLuc), transformed with Luciferase, at 10uM
Assay type: functional, HepG2
measurement_setup: tested at 10 uM
Screen size: about 69,000 compounds; about 8,600 (12%) showed an effect of 50% or more. This is one part of a sample in which strong results are shown more often than they occur.
experimental_endpoint: INHIBITION

// worked examples, INHIBITION included
{"columns": ["molecule", "INHIBITION"],
 "data": [
  ["CSc1ncc(C(=O)N2CCN(c3ccccc3C)CC2C)cn1 (stereo unspecified)", "44.8%"],
  ["O=C(CCn1cncn1)N1C[C@@H]2CC[C@H]1CN(Cc1ccncc1)C2", "22.4%"],
  ["CC(C)N1CCN(C(=O)c2ccccc2NCc2cccnc2)CC1", "-9.31%"],
  ["CN(C)C(=O)CN1C[C@H]2CC[C@@H](C1)N(C(=O)CCn1cncn1)C2", "56.8%"],
  ["CN(C)C(=O)CN1C[C@H]2CC[C@@H](C1)N(C(=O)CCCn1cncn1)C2", "8.07%"]
]}

What value of measured INHIBITION is listed for CN(C)C(=O)CN1C[C@H]2CC[C@@H](C1)N(C(=O)Cc1ccccc1Cl)C2 ?
25.1%

Let us now turn to CCC(=O)N1CCN(c2ncnc3cc4c(cc23)OCCO4)CC1
41.6%

Let us now turn to Cc1ccccc1N1CCN(C(=O)c2cscn2)C(C)C1 (stereo unspecified)
10.3%

Let us now turn to Cc1c[nH]nc1C1CCCCN1C(=O)CNS(C)(=O)=O (stereo unspecified)
48.6%

Let us now turn to Cc1c[nH]nc1C1CCCCN1C(=O)CCn1nccc1C (stereo unspecified)
57.5%

Let us now turn to Cc1ccnn1CCC(=O)N1C[C@@H]2CC[C@H]1CN(CC(=O)N(C)C)C2
55.6%

----------
System: Plasmodium berghei
measurement_protocol: Screen against P. berghei liver stage (PbLuc), transformed with Luciferase, at 10uM
Format: functional, HepG2
measurement_setup: tested at 10 uM
The whole screen tested about 69,000 compounds, of which about 8,600 (12%) showed an effect of 50% or more. The entries come from a sample that favours strong results as a whole.
Under this convention, Satisfied denotes INHIBITION strictly below 40% and Not satisfied denotes INHIBITION at or above 40%.

Quick check: does CCS(=O)(=O)N1CCC2(CCC2NC(=O)c2ccn(C)c2)CC1 (stereo unspecified) have INHIBITION under 40%?
Satisfied

Let us now turn to NC(=O)c1ccc(CN2CCCC(N3CCCC3)C2)cc1 (stereo unspecified)
Satisfied

Let us now turn to Cc1occc1C(=O)N1CCC[C@]2(C[C@@H](OCc3ccccn3)CO2)C1
Satisfied

Let us now turn to Cc1ccc(CN2C[C@H](N(C)Cc3cncnc3)[C@H]3OCCC[C@H]32)o1
Satisfied
